These measurements were taken from paper PMC6099557.

Biological target: AchE from Electrophorus electricus (Electrophorus electricus, UniProt O42275)
Sequence (O42275 24-633): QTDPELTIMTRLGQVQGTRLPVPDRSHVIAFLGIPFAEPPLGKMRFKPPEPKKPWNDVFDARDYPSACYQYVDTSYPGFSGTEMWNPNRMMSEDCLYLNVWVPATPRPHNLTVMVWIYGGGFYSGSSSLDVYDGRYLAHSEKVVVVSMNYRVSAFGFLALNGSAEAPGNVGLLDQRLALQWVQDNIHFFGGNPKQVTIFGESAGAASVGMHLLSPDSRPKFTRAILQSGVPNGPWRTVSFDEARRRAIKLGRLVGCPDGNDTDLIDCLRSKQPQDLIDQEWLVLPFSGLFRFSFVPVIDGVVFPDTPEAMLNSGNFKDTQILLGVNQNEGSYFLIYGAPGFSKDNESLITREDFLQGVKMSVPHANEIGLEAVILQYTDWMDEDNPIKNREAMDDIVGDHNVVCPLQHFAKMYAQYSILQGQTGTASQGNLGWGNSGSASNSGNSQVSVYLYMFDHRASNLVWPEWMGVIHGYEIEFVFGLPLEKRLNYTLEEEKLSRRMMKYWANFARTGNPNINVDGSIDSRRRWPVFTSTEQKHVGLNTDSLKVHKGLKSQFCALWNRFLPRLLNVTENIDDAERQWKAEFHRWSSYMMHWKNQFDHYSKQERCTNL
property_name: pIC50
Please treat pIC50 as minus the base-10 logarithm of the molar concentration.

Prompt: I have this compound here, COc1cc2c(cc1O)CN1CC[C@@]23C=C[C@@H](O)C[C@H]13 , and I need its recorded pIC50.
Completion: 3.38
